System: UACC-62 (melanoma)
Experiment: NCI 60-cell one-dose antiproliferative screen
Type: cell-based, human
Conditions: one dose 10 μM
ENDPOINT_NAME: GI%

Example entries begin here.
{"MOLECULE": "Cc1ccc(-c2nnc3ccc(NN=Cc4ccccc4)nn23)cc1 [Compound 4d]", "GI%": "— (— GI% is below 15%)"}
{"MOLECULE": "COc1ccc(-c2nnc3ccc(NN=Cc4ccc(C)cc4)nn23)cc1 [Compound 4f]", "GI%": "— (— GI% is below 15%)"}
{"MOLECULE": "O=[N+]([O-])c1ccc(C=NNc2ccc3nnc(-c4ccccc4)n3n2)cc1 [Compound 4b]", "GI%": "— (— GI% is below 15%)"}
{"MOLECULE": "Cc1cc(C)n(-c2ccc3nnc(-c4ccccc4)n3n2)n1 [Compound 5]", "GI%": "— (— GI% is below 15%)"}
{"MOLECULE": "COc1ccc(-c2nnc3ccc(NN=Cc4ccc(O)cc4)nn23)cc1 [Compound 4g]", "GI%": "41.19%"}
{"MOLECULE": "CC(=O)NNc1ccc2nnc(-c3ccccc3)n2n1 [Compound 6a]", "GI%": "— (— GI% is below 15%)"}

Batch request: GI% per item, same order as input.
1. COc1ccc(-c2nnc3ccc(NNC(C)=O)nn23)cc1 [Compound 6b]
2. COc1ccc(-c2nnc3ccc(NN=Cc4ccccc4)nn23)cc1 [Compound 4e]
3. CN(C)c1ccc(C=NNc2ccc3nnc(-c4ccccc4)n3n2)cc1 [Compound 4c]

1. — (— GI% is below 15%)
2. — (— GI% is below 15%)
3. — (— GI% is below 15%)
